Assay: anti-His antibody binders, primary screen, artefact control for SMM control protein annotation, biochemical, small-molecule microarray, 635 nm fluorescence (AID 1128);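 note: score merges feature fluorescence with signal-to-noise for each printed compound spot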
Settings: anti-His Alexa647 antibody binding, higher = more signal
assay endpoint: composite z-score
// keep it numeric: no unit symbol after the value

Cn1c(=O)n2n(c1=O)[C@H]1[C@H](O)[C@@H]3O[C@@H]3C(=NOC[C@@H](O)COCc3ccco3)[C@H]1CC2 :: -0.272
O=C1NC(=O)C2C1C=CC(C(O)Cc1ccccc1)N2Nc1ccccn1 (configuration not stated) :: 0.596
CC(=O)OC[C@H]1O[C@@H](ON=C[C@@H](C)[C@H](OCc2ccccc2)C(C)C)[C@H](OC(C)=O)[C@@H](OC(C)=O)[C@@H]1OC(C)=O :: 0.133
Cc1ccc(S(=O)(=O)N[C@@H]2COC(=O)[C@H](C)COC(=O)CC=C[C@H]2C)cc1 :: -0.419
COc1ccc([Si](C)(C)[C@@H]2[C@@H](CCO)O[C@]3(C(=O)N(Cc4ccc(NC(C)=O)cc4)c4ccccc43)[C@H]2C)cc1 :: 1.92

The molecule identified as CCN1C(=O)[C@H]2[C@H]3[C@H](O)[C@H](O)CC(=NOC(C)CN4CCCCc5nc(C)c(C)cc54)[C@@H]3CC[C@H]2C1=O (some centres not stated) registered its composite z-score at 2.1

// field: composite z-score; key: "CC(C)C[C@@H]1NC(=O)[C@H]2C[C@@H](C(=O)O)[C@@H](c3ccc(O)cc3)N2C1=O" ; value = 3.44

====

Test: osmotic lysis modulators in infected erythrocytes, primary screen, PSAC antagonist project, cell-based, P. falciparum Indochina, OD700, 3 h (AID 1156)
Conditions: higher = more signal, called active from +8 up or from −8 down
assay endpoint: z-score
Answer with the value's number alone.

Some molecules with recorded z-score:
CC[C@@H](c1ccccc1)n1c(=O)n2n(c1=O)[C@H]1[C@H](O)[C@@H]3O[C@@H]3C(=NOCC(C)C)[C@H]1CC2 :: 0.282
COCCOC(=O)N1C(=O)[C@@]2(c3cc(C#Cc4ccc(OC)cc4)ccc31)[C@H](c1ccc(O)cc1)N1[C@H](c3ccccc3)[C@H](c3ccccc3)OC(=O)[C@H]1[C@@H]2C(N)=O :: -0.407
COc1ccc(-c2nc3c(c4c2C[C@H](C)OC4)CN(CCC(C)C)CC3)cc1 :: 0.511
CC[C@@H](c1ccccc1)n1c(=O)n2n(c1=O)[C@H]1[C@H](O)[C@@H]3O[C@@H]3C(=NOCC=C(C)CCC=C(C)C)[C@H]1CC2 :: 0.0313
CC(C)CON=C1C[C@@H](O)[C@@H](O)[C@@H]2[C@@H]3C(=O)N(Cc4ccccc4)C(=O)[C@@H]3CC[C@@H]12 :: 0.65

Measured z-score of "CO[C@H]1COC(=O)[C@@H]2CCCN2C(=O)[C@@H](C)COC(=O)CC=C[C@@H]1C" : 0.61

Recorded result, "CO[C@H]([C@@H](C)[C@H](OC)c1ccccc1)[C@H](C)[C@@H](OC)[C@H](C)C(C)=O" , z-score: -0.181

====

z-score by entry:
Test: basal RPMI8226 viability, no added stimulus, profiling panel, cell-based, calcein-AM fluorescence, 48 h, PK04 Diversity Set (AID 1166);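 note: cells grown under basal conditions without added stimulus; test concentration not given here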
Conditions: RPMI8226 myeloma viability, higher = more signal
Lab note: record the figure alone, no unit after it.

Recorded z-score, per entry:
CO[C@@H]1COC(=O)[C@@H]2CCCN2C(=O)[C@@H](C)COC(=O)[C@H](COCc2ccccc2)NC(=O)CC=C[C@H]1C :: -0.0455
CC(C)CON=C1[C@H]2CCn3c(=O)n(-c4ccccc4)c(=O)n3[C@H]2[C@H](O)[C@@H]2O[C@H]12 :: -1.2
CCOC(=O)NN=C1C[C@@H](O)[C@@H](O)[C@@H]2[C@@H]3C(=O)N(CC)C(=O)[C@@H]3CC[C@@H]12 :: 0.288

Would you kindly look at the next entry?
z-score in this record for "COc1ccc(O[C@H]2C=C[C@@H](c3ccccc3)O[C@@H]2CON=C[C@@H](C)[C@H](OCc2ccccc2)C(C)C)cc1" : -0.903

====

Experiment: PSAC antagonists in infected red cells, primary screen, cell-based, P. falciparum Indochina, OD700, 2 h (AID 1155);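 note: lysis reports solute entry through the parasite surface anion channel PSAC; channel blockers reduce lysis of infected cells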
Conditions: P. falciparum Indochina infected erythrocytes, osmotic lysis OD700; higher = more signal, called active from +8 up or from −8 down
Our labelling divides records by z-score into ranges: class 1 (below 0.3), class 2 (0.3 to below 0.9), class 3 (0.9 or more)

CC(CCC(=O)OC[C@H]1O[C@H](C#Cc2ccccc2)C=C[C@@H]1Oc1ccc(C)cc1)=NOC[C@@H](O)[C@H]1O[C@@H]2OC(C)(C)O[C@@H]2[C@H]1O :: class 3
CCCNC(=O)OC[C@H]1O[C@H](CCON=C2[C@H]3CCn4c(=O)n(-c5ccccc5)c(=O)n4[C@H]3[C@H](O)[C@@H]3O[C@H]23)C=C[C@@H]1Oc1ccc(OC)cc1 :: class 1
C#CCCCON=C1C[C@@H](O)[C@@H](O)[C@@H]2[C@@H]3C(=O)N(c4cccc(Oc5ccccc5)c4)C(=O)[C@@H]3CC[C@@H]12 :: class 3

(Q) Which class does "CO[C@H]1COC(=O)[C@@H]2CCCN2C(=O)CC=C[C@@H](C)[C@H](OC)COC(=O)CC=C[C@@H]1C" fall in?
(A) class 1

(Q) // bin(item) where item = CC(=O)O[C@H]1C2=C(C(=O)[C@@H]3O[C@@H]31)[C@H]1C(C)O[C@@H]2[C@@]23C(=O)[C@@H]4O[C@@H]4[C@@H](O)C2=CO[C@H](C)[C@@H]13 (stereo not given in full)
(A) class 1

(Q) Assign a bin to "COC(=O)C1=C(C)[C@@H](O)[C@@H](C)[C@H](c2c(OC)c(OC)c(C)c(OC)c2OC)O1"
(A) class 2

(Q) Pick a category. Item: "CN1C(=O)[C@@]2(CCC(=O)OC(C)(C)C)N=C(c3ccc(OCCCO)cc3)O[C@H]2c2ccccc21"
(A) class 3

(Q) Tag the class for "COC(=O)[C@@]1(Cc2ccccc2)[C@H]2c3cc(C(=O)N4CCCC4)n(Cc4ccccn4)c3C[C@H]2CN1C(=O)c1ccccc1"
(A) class 1

(Q) Please indicate the class for COC(=O)C1=CCC(c2cccc(Cl)c2)O1 (stereo not given) based on its z-score.
(A) class 1

(Q) Hey, which category is "COCCOC(=O)N1C(=O)[C@@]2(c3cc(C#Cc4ccc(OC)cc4)ccc31)[C@H](c1ccc(O)cc1)N1[C@H](c3ccccc3)[C@H](c3ccccc3)OC(=O)[C@H]1[C@@H]2C(N)=O" in, do you know?
(A) class 3

(Q) # bin lookup: classify CS(=O)(=O)CCOC(=O)C1=CC(CCCO)=CC(c2cccs2)N(Cc2cccc(OC(F)(F)F)c2)C=C1C(=O)OCCS(C)(=O)=O (stereo not given) by its z-score
(A) class 3

(Q) Each molecule maps to one class by z-score. Which class for "CO[C@H]1COC(=O)[C@H](C)NC(=O)[C@@H](C)COC(=O)CC=C[C@@H]1C" ?
(A) class 2

(Q) For "COc1ccc(O[C@H]2C=C[C@@H](c3ccccc3)O[C@@H]2COC(=O)CCC(C)=NOCC[C@@H]2C=C[C@H](OC(C)=O)[C@@H](COC(C)=O)O2)cc1" , which z-score bin applies?
(A) class 3

(Q) Dear colleague, I would appreciate it if you could identify the bin for "CCc1cc2c(nc1CC)CCN(CCC(C)=NO[C@@H](C)c1cc(-c3c(C)cc(C)cc3C)no1)C2" and reply at your convenience.
(A) class 2

(Q) Assign a bin to "CO[C@@H]1COC(=O)CCC[C@@H](C)[C@H](OC)COC(=O)CCC[C@H]1C"
(A) class 2

(Q) Classify this molecule: COC(=O)[C@H](C)NC(=O)CCC1CC(OC(=O)NCCc2ccc(F)cc2)CC2(CCCC(COC(=O)NCCc3ccc(Cl)cc3)O2)O1 (stereo not given in full)
(A) class 2

(Q) Class (by measured z-score) for O=C1CCCC=C1C(O)CCOCc1ccccc1 (stereo not given)
(A) class 1

(Q) Assign a bin to "COc1ccc([Si](C)(C)[C@@H]2[C@@H](CCO)O[C@]3(C(=O)N(Cc4ccc(NC(C)=O)cc4)c4ccccc43)[C@H]2C)cc1"
(A) class 3

(Q) // return the class label for "O=C(CS)NCCCCCNC(=O)[C@H]1C[C@H]2C(=O)N3CCC[C@H]3C(=O)N2[C@H]1c1cccc(OCCO)c1"
(A) class 2

(Q) Band of COC(=O)CC1OC1[C@H](C)[C@@H](OC)C(C)C (stereo not given in full) ?
(A) class 1

(Q) State the band of "CCCNC(=O)[C@@H]1c2ccccc2C(=O)N(Cc2ccccc2Cl)[C@H]1c1ccc(CO)cc1"
(A) class 1

(Q) Which of the defined bands does the recorded z-score of "COCCCNC(=O)[C@]1(CCC(=O)OC(C)(C)C)N=C(c2ccc(OCCCO)cc2)O[C@@H]1c1ccccc1N=[N+]=[N-]" sit within?
(A) class 3
